system: S. aureus CICC25138; format: cell-based
Residues, ends and D or L forms follow the SMILES beside them.
Measured parameter: MIC (μg/mL) S. aureus CICC25138 (µg/mL)
Numbers only; they are read as µg/mL.

Examples with their reported MIC (μg/mL) S. aureus CICC25138 follow.
Query: Tell me reported MIC (μg/mL) S. aureus CICC25138 for CC[C@H](C)[C@H](NC(=O)[C@H](CCCCN)NC(=O)[C@H](CCCNC(=N)N)NC(=O)[C@@H](N)CCCCN)C(=O)N[C@@H](CCCCN)C(=O)N[C@@H](Cc1c[nH]c2ccccc12)C(=O)N[C@@H](Cc1c[nH]c2ccccc12)C(=O)N[C@H](C(=O)N[C@@H](CCCNC(=N)N)C(=O)N[C@@H](Cc1c[nH]c2ccccc12)C(=O)N[C@H](C(=O)N[C@H](C(=O)N[C@@H](CCCCN)C(=O)N[C@@H](CC(C)C)C(N)=O)[C@@H](C)O)[C@@H](C)CC)C(C)C [QLX-3DV-8] (H-KRKIKWWVRWITKL-NH2) , tested with S. aureus CICC25138.
Result: 16

Query: Tell me reported MIC (μg/mL) S. aureus CICC25138 for CC[C@H](C)[C@H](NC(=O)[C@H](CCCCN)NC(=O)[C@H](Cc1c[nH]c2ccccc12)NC(=O)[C@@H](N)CCCCN)C(=O)N[C@@H](CCCCN)C(=O)N[C@@H](CCC(N)=O)C(=O)N[C@@H](Cc1c[nH]c2ccccc12)C(=O)N[C@H](C(=O)N[C@@H](CCCNC(=N)N)C(=O)N[C@@H](Cc1c[nH]c2ccccc12)C(=O)N[C@@H](Cc1ccccc1)C(=O)N[C@@H](CCCNC(=N)N)C(=O)N[C@@H](CCCCN)C(=O)N[C@@H](CC(C)C)C(N)=O)C(C)C [QLX-3DV-6] (H-KWKIKQWVRWFRKL-NH2) , tested with S. aureus CICC25138.
Result: 16

Others:
Query: Tell me reported MIC (μg/mL) S. aureus CICC25138 for CC[C@H](C)[C@H](N)C(=O)N[C@H](C(=O)N[C@H](C(=O)N[C@@H](CCCNC(=N)N)C(=O)N[C@@H](Cc1ccccc1)C(=O)N[C@@H](CC(C)C)C(=O)N[C@@H](CCCCN)C(=O)N1CCC[C@H]1C(=O)N[C@@H](CCCCN)C(=O)N[C@@H](CC(C)C)C(=O)N[C@@H](CC(C)C)C(=O)N[C@@H](CCCCN)C(=O)N[C@@H](C)C(=O)N[C@@H](CC(C)C)C(=O)N[C@@H](CCCCN)C(N)=O)[C@@H](C)CC)C(C)C [QLX-3DV-19] (H-IVIRFLKPKLLKALK-NH2) , tested with S. aureus CICC25138.
Result: 128

Query: Tell me reported MIC (μg/mL) S. aureus CICC25138 for CC[C@H](C)[C@H](NC(=O)[C@H](CCCCN)NC(=O)[C@H](Cc1c[nH]c2ccccc12)NC(=O)[C@@H](N)CCCCN)C(=O)N[C@@H](CCCCN)C(=O)N[C@@H](CCCNC(=N)N)C(=O)N1CCC[C@H]1C(=O)N[C@H](C(=O)N[C@@H](CCCCN)C(=O)N[C@@H](Cc1c[nH]c2ccccc12)C(=O)N[C@@H](Cc1ccccc1)C(=O)N[C@H](C(=O)N[C@@H](CCSC)C(=O)N[C@@H](CC(C)C)C(N)=O)[C@@H](C)O)C(C)C [QLX-3DV-5] (H-KWKIKRPVKWFTML-NH2) , tested with S. aureus CICC25138.
Result: 64

====

test system: P. aeruginosa 119; assay type: cell-based
Residues, ends and D or L forms follow the SMILES beside them.
Measured parameter: MIC (μg/mL) P. aeruginosa 119

Query: For the compound shown here, CC[C@H](C)[C@H](NC(=O)[C@H](CCCCN)NC(=O)[C@H](Cc1c[nH]c2ccccc12)NC(=O)[C@@H](N)CCCCN)C(=O)N[C@@H](CCCCN)C(=O)N[C@@H](Cc1c[nH]c2ccccc12)C(=O)N[C@@H](Cc1c[nH]cn1)C(=O)N[C@H](C(=O)N[C@@H](CCCNC(=N)N)C(=O)N[C@@H](Cc1c[nH]c2ccccc12)C(=O)N[C@@H](Cc1ccccc1)C(=O)N[C@@H](CCCNC(=N)N)C(=O)N[C@H](C(=O)N[C@@H](CC(C)C)C(N)=O)C(C)C)C(C)C [QLX-3DV-10] (H-KWKIKWHVRWFRVL-NH2) , give the reported MIC (μg/mL) P. aeruginosa 119.
Result: 64 µg/mL

Query: For the compound shown here, CC[C@H](C)[C@H](NC(=O)[C@H](CCCCN)NC(=O)[C@H](Cc1c[nH]c2ccccc12)NC(=O)[C@@H](N)CCCCN)C(=O)N[C@@H](CCCCN)C(=O)N[C@@H](CCCNC(=N)N)C(=O)N1CCC[C@H]1C(=O)N[C@H](C(=O)N[C@@H](CCCCN)C(=O)N[C@@H](Cc1c[nH]c2ccccc12)C(=O)N[C@@H](Cc1ccccc1)C(=O)N[C@H](C(=O)N[C@@H](CCSC)C(=O)N[C@@H](CC(C)C)C(N)=O)[C@@H](C)O)C(C)C [QLX-3DV-5] (H-KWKIKRPVKWFTML-NH2) , give the reported MIC (μg/mL) P. aeruginosa 119.
Result: 64 µg/mL

Others:
Query: For the compound shown here, CC[C@H](C)[C@H](NC(=O)[C@H](CCCNC(=N)N)NC(=O)[C@H](Cc1c[nH]c2ccccc12)NC(=O)[C@H](CCCCN)NC(=O)[C@H](CCC(N)=O)NC(=O)[C@H](CCCNC(=N)N)NC(=O)[C@@H](N)CCCNC(=N)N)C(=O)N[C@@H](CC(C)C)C(=O)N[C@@H](C)C(=O)N[C@@H](CC(C)C)C(=O)N[C@@H](CC(N)=O)C(=O)N[C@H](C(=O)N[C@@H](Cc1c[nH]c2ccccc12)C(=O)N[C@@H](CCCCN)C(N)=O)[C@@H](C)CC [QLX-3DV-11] (H-RRQKWRILALNIWK-NH2) , give the reported MIC (μg/mL) P. aeruginosa 119.
Result: 32 µg/mL

Query: For the compound shown here, CC[C@H](C)[C@H](NC(=O)[C@H](CCCCN)NC(=O)[C@H](CCCNC(=N)N)NC(=O)[C@@H](N)CCCCN)C(=O)N[C@@H](CCCCN)C(=O)N[C@@H](Cc1c[nH]c2ccccc12)C(=O)N[C@@H](Cc1c[nH]c2ccccc12)C(=O)N[C@H](C(=O)N[C@@H](CCCNC(=N)N)C(=O)N[C@@H](Cc1c[nH]c2ccccc12)C(=O)N[C@H](C(=O)N[C@H](C(=O)N[C@@H](CCCCN)C(=O)N[C@@H](CC(C)C)C(N)=O)[C@@H](C)O)[C@@H](C)CC)C(C)C [QLX-3DV-8] (H-KRKIKWWVRWITKL-NH2) , give the reported MIC (μg/mL) P. aeruginosa 119.
Result: 32 µg/mL

====

tested on: P. aeruginosa 116; type: cell-based
Residues, ends and D or L forms follow the SMILES beside them.
Measured parameter: MIC (μg/mL) P. aeruginosa 116 (µg/mL)
Numbers only; they are read as µg/mL.

Examples with their reported MIC (μg/mL) P. aeruginosa 116 follow.
Query: For the molecule shown here, CC[C@H](C)[C@H](NC(=O)[C@H](CCCCN)NC(=O)[C@H](Cc1c[nH]c2ccccc12)NC(=O)[C@@H](N)CCCCN)C(=O)N[C@@H](CCCCN)C(=O)N[C@@H](CCC(N)=O)C(=O)N[C@@H](Cc1c[nH]c2ccccc12)C(=O)N[C@H](C(=O)N[C@@H](CCCNC(=N)N)C(=O)N[C@@H](Cc1c[nH]c2ccccc12)C(=O)N[C@@H](Cc1ccccc1)C(=O)N[C@@H](CCCNC(=N)N)C(=O)N[C@@H](CCCCN)C(=O)N[C@@H](CC(C)C)C(N)=O)C(C)C [QLX-3DV-6] (H-KWKIKQWVRWFRKL-NH2) , give the reported MIC (μg/mL) P. aeruginosa 116.
Result: 16

Query: For the molecule shown here, CC[C@H](C)[C@H](NC(=O)[C@H](CCCCN)NC(=O)[C@H](CCCNC(=N)N)NC(=O)[C@@H](N)CCCCN)C(=O)N[C@@H](CCCCN)C(=O)N[C@@H](Cc1c[nH]c2ccccc12)C(=O)N[C@@H](CCCCN)C(=O)N[C@H](C(=O)N[C@@H](CCCNC(=N)N)C(=O)N[C@@H](Cc1c[nH]c2ccccc12)C(=O)N[C@@H](Cc1ccccc1)C(=O)N[C@H](C(=O)N[C@@H](Cc1ccc(O)cc1)C(=O)N[C@@H](CC(C)C)C(N)=O)[C@@H](C)O)C(C)C [QLX-3DV-7] (H-KRKIKWKVRWFTYL-NH2) , give the reported MIC (μg/mL) P. aeruginosa 116.
Result: 8

Query: For the molecule shown here, CC[C@H](C)[C@H](NC(=O)[C@H](CCCCN)NC(=O)[C@H](Cc1c[nH]c2ccccc12)NC(=O)[C@@H](N)CCCCN)C(=O)N[C@@H](CCCCN)C(=O)N[C@@H](Cc1c[nH]c2ccccc12)C(=O)N1CCC[C@H]1C(=O)N[C@@H](CO)C(=O)N[C@@H](CC(N)=O)C(=O)N[C@@H](Cc1c[nH]c2ccccc12)C(=O)N[C@@H](Cc1ccccc1)C(=O)N[C@H](C(=O)N[C@@H](CCCCN)C(=O)N[C@@H](CC(C)C)C(N)=O)[C@@H](C)O [QLX-3DV-3] (H-KWKIKWPSNWFTKL-NH2) , give the reported MIC (μg/mL) P. aeruginosa 116.
Result: 16

Others:
Query: For the molecule shown here, CC[C@H](C)[C@H](NC(=O)[C@H](CCCNC(=N)N)NC(=O)[C@H](Cc1c[nH]c2ccccc12)NC(=O)[C@H](CCCCN)NC(=O)[C@H](CCC(N)=O)NC(=O)[C@H](CCCNC(=N)N)NC(=O)[C@@H](N)CCCNC(=N)N)C(=O)N[C@@H](CC(C)C)C(=O)N[C@@H](C)C(=O)N[C@@H](CC(C)C)C(=O)N[C@@H](CC(N)=O)C(=O)N[C@H](C(=O)N[C@@H](Cc1c[nH]c2ccccc12)C(=O)N[C@@H](CCCCN)C(N)=O)[C@@H](C)CC [QLX-3DV-11] (H-RRQKWRILALNIWK-NH2) , give the reported MIC (μg/mL) P. aeruginosa 116.
Result: 32
